Each entry below carries its reported IC50.
# assay-system: GST-tagged recombinant human RIP2 (Homo sapiens (Human), UniProt O43353)
# Sequence (O43353 whole entry): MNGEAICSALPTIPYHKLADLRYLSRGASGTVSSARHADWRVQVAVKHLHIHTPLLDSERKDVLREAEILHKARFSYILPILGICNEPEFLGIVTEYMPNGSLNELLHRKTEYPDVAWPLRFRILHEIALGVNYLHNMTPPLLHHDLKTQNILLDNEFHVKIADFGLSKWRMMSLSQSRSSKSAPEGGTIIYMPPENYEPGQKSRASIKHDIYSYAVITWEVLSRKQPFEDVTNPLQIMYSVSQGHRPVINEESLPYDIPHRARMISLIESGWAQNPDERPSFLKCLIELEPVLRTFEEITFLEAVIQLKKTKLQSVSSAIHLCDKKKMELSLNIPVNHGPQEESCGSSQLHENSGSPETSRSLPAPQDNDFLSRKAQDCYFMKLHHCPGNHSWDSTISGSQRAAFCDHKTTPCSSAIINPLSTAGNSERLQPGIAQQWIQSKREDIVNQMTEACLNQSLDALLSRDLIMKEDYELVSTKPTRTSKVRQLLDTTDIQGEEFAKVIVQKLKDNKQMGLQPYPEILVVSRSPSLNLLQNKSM
# experimental-protocol: RIP2 Kinase Assay (ADP-Glo)
# assay-conditions: in vitro kinase activity, ATP 25 μM
value-kind: IC50

[[record]]
smiles_text = "Cc1c(-c2ccc3nc(N)c(C(=O)[C@@H]4C[C@@H]4F)n3c2)cccc1C(F)(F)F"
assay_system = "GST-tagged recombinant human RIP2 (Homo sapiens (Human), UniProt O43353)"
result = "101 to 500 nM"

[[record]]
smiles_text = "CC(=O)Nc1nc2ccc(-c3cccc(F)c3C)cn2c1C(C)=O"
assay_system = "GST-tagged recombinant human RIP2 (Homo sapiens (Human), UniProt O43353)"
result = "> 1000 nM"

[[record]]
smiles_text = "Nc1nc2ccc(-c3ccc4[nH]ncc4c3Cl)cn2c1C(=O)[C@@H]1C[C@@H]1F"
assay_system = "GST-tagged recombinant human RIP2 (Homo sapiens (Human), UniProt O43353)"
result = "1 to 100 nM"

[[record]]
smiles_text = "Nc1nc2ccc(-c3ccc[nH]3)cn2c1C(=O)[C@@H]1C[C@@H]1F"
assay_system = "GST-tagged recombinant human RIP2 (Homo sapiens (Human), UniProt O43353)"
result = "> 1000 nM"

[[record]]
smiles_text = "Nc1nc2ccc(-c3cccc(F)c3Cl)cn2c1C(=O)[C@@H]1C[C@@H]1F"
assay_system = "GST-tagged recombinant human RIP2 (Homo sapiens (Human), UniProt O43353)"
result = "1 to 100 nM"


====

# assay-system: GST-tagged recombinant human RIP2 (Homo sapiens (Human))
# experimental-protocol: RIP2 Kinase Assay (ADP-Glo)
# assay-conditions: in vitro kinase activity, ATP 25 μM
pIC50: −log10 of the molar value.
Each entry below carries its reported pIC50.
value-kind: pIC50

[[record]]
compound = "Cc1c(F)cccc1-c1ccc2nc(N)c(C(=O)C3CN(C(=O)OC(C)(C)C)C3)n2c1"
result = "< 6.00"

[[record]]
compound = "Cc1c(F)cccc1-c1ccc2nc(N)c(C(=O)C3CCN3)n2c1 (stereo not shown)"
result = "6.30 to 7.00"

[[record]]
compound = "Cc1ccccc1-c1ccc2nc(N)c(C(=O)[C@@H]3C[C@@H]3F)n2c1"
result = "7.00 to 9.00"

[[record]]
compound = "CC(=O)c1c(N)nc2ccc(-c3cccc(F)c3C)cn12"
result = "6.30 to 7.00"

[[record]]
compound = "Nc1nc2ccc(-c3cccc(F)c3CCCF)cn2c1C(=O)[C@@H]1C[C@@H]1F"
result = "6.30 to 7.00"

[[record]]
compound = "Cc1c(F)cccc1-c1ccc2nc(N)c(C(=O)[C@@H]3C[C@@H]3F)n2c1"
result = "7.00 to 9.00"

[[record]]
compound = "Cc1c(F)cccc1-c1ccc2nc(N)c(C(=O)[C@@H]3C[C@H]3F)n2c1"
result = "6.30 to 7.00"

[[record]]
compound = "Nc1nc2ccc(-c3ccc(N4CCNCC4)cc3)cn2c1C(=O)[C@@H]1C[C@@H]1F"
result = "6.00 to 6.30"

[[record]]
compound = "Cc1c(-c2ccc3nc(N)c(C(=O)C4CCNC4)n3c2)cnc2[nH]ccc12 (stereo not shown)"
result = "7.00 to 9.00"

[[record]]
compound = "Cc1c(F)cc2[nH]ncc2c1-c1ccn2nc(N)c(C(=O)C3CC3)c2c1"
result = "7.00 to 9.00"

[[record]]
compound = "Nc1nc2ccc(-c3ccccc3CCF)cn2c1C(=O)[C@H]1C[C@@H]1F"
result = "< 6.00"

[[record]]
compound = "Cc1c(-c2ccc3nc(N)c(C(=O)c4ncccn4)n3c2)cnc2[nH]ccc12"
result = "7.00 to 9.00"

[[record]]
compound = "Cc1ccc(-c2ccc3nc(N)c(C(=O)[C@@H]4C[C@@H]4F)n3c2)c(C)c1"
result = "6.30 to 7.00"

[[record]]
compound = "Nc1nc2ccc(-c3cccc4[nH]ccc34)cn2c1C(=O)[C@@H]1C[C@@H]1F"
result = "7.00 to 9.00"

[[record]]
compound = "Cc1c(-c2ccc3nc(N)c(C(=O)[C@@H]4C[C@H]4F)n3c2)ccc2[nH]ccc12"
result = "7.00 to 9.00"

[[record]]
compound = "COC(=O)c1c(N)nc2ccc(-c3cccc(F)c3C)cn12"
result = "6.30 to 7.00"

[[record]]
compound = "CC(C)(C)OC(=O)n1cccc1-c1ccc2nc(N)c(C(=O)[C@@H]3C[C@@H]3F)n2c1"
result = "< 6.00"

[[record]]
compound = "Cc1ccc2[nH]ncc2c1-c1ccc2nc(N)c(C(=O)C3CC3)n2c1"
result = "7.00 to 9.00"

[[record]]
compound = "Cc1c(-c2ccc3nc(N)c(C(=O)[C@H]4C[C@@H]4F)n3c2)ccc2[nH]ccc12"
result = "7.00 to 9.00"

[[record]]
compound = "Nc1nc2ccc(-c3cnc4[nH]ccc4c3)cn2c1C(=O)c1ncccn1"
result = "7.00 to 9.00"

[[record]]
compound = "Nc1nc2ccc(-c3ccccc3CCO)cn2c1C(=O)[C@@H]1C[C@@H]1F"
result = "6.30 to 7.00"

[[record]]
compound = "Cc1c(F)cccc1-c1ccc2nc(N)c(C(=O)[C@H]3C[C@H]3F)n2c1"
result = "6.30 to 7.00"

[[record]]
compound = "Nc1nc2ccc(-c3ccccc3Cl)cn2c1C(=O)[C@@H]1C[C@@H]1F"
result = "6.30 to 7.00"

[[record]]
compound = "Cc1c(F)cccc1Nc1ccc2nc(N)c(C(=O)[C@@H]3C[C@@H]3F)n2c1"
result = "6.30 to 7.00"

[[record]]
compound = "Cc1c(F)cc2[nH]ccc2c1-c1ccc2nc(N)c(C(=O)[C@@H]3C[C@@H]3F)n2c1"
result = "7.00 to 9.00"

[[record]]
compound = "Cc1c(F)cccc1-c1ccc2nc(N)c(C(=O)c3ccccc3)n2c1"
result = "6.30 to 7.00"

[[record]]
compound = "Cc1c(N)cc(F)cc1-c1ccc2nc(N)c(C(=O)[C@@H]3C[C@@H]3F)n2c1"
result = "7.00 to 9.00"

[[record]]
compound = "NCc1ccccc1-c1ccc2nc(N)c(C(=O)[C@@H]3C[C@@H]3F)n2c1"
result = "< 6.00"

[[record]]
compound = "Cc1c(F)cccc1Oc1ccc2nc(N)c(C(=O)[C@@H]3C[C@@H]3F)n2c1"
result = "6.30 to 7.00"

[[record]]
compound = "Nc1nc2ccc(-c3c(F)ccc4[nH]ccc34)cn2c1C(=O)[C@@H]1C[C@@H]1F"
result = "7.00 to 9.00"

[[record]]
compound = "Nc1nc2ccc(-c3cnc4[nH]ccc4c3)cn2c1C(=O)c1ccccn1"
result = "7.00 to 9.00"

[[record]]
compound = "Cc1c(-c2ccc3nc(N)c(C(=O)[C@@H]4C[C@@H]4F)n3c2)ccc2[nH]cnc12"
result = "6.30 to 7.00"

[[record]]
compound = "Nc1nc2ccc(-c3cccc(F)c3C(F)(F)F)cn2c1C(=O)[C@@H]1C[C@@H]1F"
result = "< 6.00"

[[record]]
compound = "Nc1nc2ccc(-c3ccco3)cn2c1C(=O)[C@@H]1C[C@@H]1F"
result = "< 6.00"

